The measurements presented in this section are drawn from ChEMBL document CHEMBL3885861.

Organism: Rattus norvegicus
TEST_DESCRIPTION: Open TG-GATES - Regimen: Daily Repeat
Format: toxicity, organism-based, Sprague-Dawley
Parameters: regimen Daily Repeat, gender Male, age 6 weeks
DETAILS: in vivo, po, 0 mg/kg, 72 h, tissue Plasma, route gavage, dose level Control, time 3 day
OBSERVATION_TYPE: PL (mg/dL)
Numbers only here, please. The scale is mg/dL.

Identify measured PL corresponding to CCN(CC)C(=S)SSC(=S)N(CC)CC
136.8

Give PL for CC(S)C(=O)NCC(=O)O (stereo not drawn)
137.6

Given the molecule CN(CCOc1ccc(CC2SC(=O)NC2=O)cc1)c1ccccn1.O=C(O)/C=C\C(=O)O (stereo not drawn) [ROSIGLITAZONE MALEATE] , write its reported PL.
154.8

Return PL for the following molecule: CC(=O)[C@@]1(O)CC[C@H]2[C@@H]3C=C(Cl)C4=CC(=O)CC[C@]4(C)[C@H]3CC[C@@]21C
151.2

Please give the documented PL of CCCCC1C(=O)N(c2ccccc2)N(c2ccccc2)C1=O
170.6

Consider the molecule CCCCNC(=O)NS(=O)(=O)c1ccc(C)cc1 [TOLBUTAMIDE] and give its recorded PL.
149.8

Look up PL of O=C(O)c1ccccc1Nc1ccccc1 and report it.
147.4

Give me measured PL, please, for this molecule: CCO
160.6

Using known records, supply PL for CN(C/C=C/C#CC(C)(C)C)Cc1cccc2ccccc12
147.6

Provide one value: measured PL of O=c1ccc2ccccc2o1
134.6

Identify the reported PL for the following entry. NS(=O)(=O)c1cc(C(=O)O)c(NCc2ccco2)cc1Cl [FUROSEMIDE]
182

Specify PL for Nc1ccc(Cc2ccc(N)cc2)cc1 and stop.
139

For the molecule COc1ccc([C@@H]2Sc3ccccc3N(CCN(C)C)C(=O)[C@@H]2OC(C)=O)cc1 , give its reported PL.
151.2
